measurementParameters: in n-hexane, 308.15 K
quantity: solubility (mole fraction)
Keep it simple and answer with nothing but the number.

Report solubility (mole fraction) for O=C(CN1C(=O)S/C(=C\c2ccc(Cl)cc2)C1=O)N1CCN(CC(O)(Cn2cncn2)c2cc(F)ccc2F)CC1 (stereo unspecified) please.
5.16e-06

----------
measurementParameters: in n-hexane, 298.15 K
quantity: solubility (mole fraction)
Simply state the number, no unit and no words.

Quick one: solubility (mole fraction) of O=C(CN1C(=O)S/C(=C\c2ccc(Cl)cc2)C1=O)N1CCN(CC(O)(Cn2cncn2)c2cc(F)ccc2F)CC1 (stereo unspecified) ?
3.14e-06

----------
measurementParameters: in ethanol, 308.15 K
quantity: solubility (mole fraction)
Answer as a number with no unit attached.

Find the recorded solubility (mole fraction) belonging to O=C(CN1C(=O)S/C(=C\c2ccc(Cl)cc2)C1=O)N1CCN(CC(O)(Cn2cncn2)c2cc(F)ccc2F)CC1 (stereo unspecified) and report it.
0.000312

----------
measurementParameters: in n-octanol, 293.15 K
quantity: solubility (mole fraction)
Write no unit; give the number alone.

Please look up its solubility (mole fraction): O=C(CN1C(=O)S/C(=C\c2ccc(Cl)cc2)C1=O)N1CCN(CC(O)(Cn2cncn2)c2cc(F)ccc2F)CC1 (stereo unspecified)
0.00047

----------
measurementParameters: in n-hexane, 293.15 K
quantity: solubility (mole fraction)
Quick one: just the number, no unit, thanks!

I am curious: what solubility (mole fraction) value has been reported for O=C(CN1C(=O)S/C(=C\c2ccc(Cl)cc2)C1=O)N1CCN(CC(O)(Cn2cncn2)c2cc(F)ccc2F)CC1 (stereo unspecified) ?
2.34e-06

----------
measurementParameters: in n-octanol, 308.15 K
quantity: solubility (mole fraction)

For the compound shown here, O=C(CN1C(=O)S/C(=C\c2ccc(Cl)cc2)C1=O)N1CCN(CC(O)(Cn2cncn2)c2cc(F)ccc2F)CC1 (stereo unspecified) , give the reported solubility (mole fraction).
0.000882

----------
measurementParameters: in ethanol, 298.15 K
quantity: solubility (mole fraction)
Give the value as a plain number.

Please give the measured solubility (mole fraction) for this molecule: O=C(CN1C(=O)S/C(=C\c2ccc(Cl)cc2)C1=O)N1CCN(CC(O)(Cn2cncn2)c2cc(F)ccc2F)CC1 (stereo unspecified)
0.0002

----------
measurementParameters: in n-hexane, 313.15 K
quantity: solubility (mole fraction)
Just the number, please.

Param item = O=C(CN1C(=O)S/C(=C\c2ccc(Cl)cc2)C1=O)N1CCN(CC(O)(Cn2cncn2)c2cc(F)ccc2F)CC1 (stereo unspecified) ; retrieve measured solubility (mole fraction).
6.28e-06

----------
measurementParameters: in ethanol, 293.15 K
quantity: solubility (mole fraction)
The reply should be a number, written without any unit.

State the recorded solubility (mole fraction) for this entry: O=C(CN1C(=O)S/C(=C\c2ccc(Cl)cc2)C1=O)N1CCN(CC(O)(Cn2cncn2)c2cc(F)ccc2F)CC1 (stereo unspecified)
0.000161

----------
measurementParameters: in n-octanol, 313.15 K
quantity: solubility (mole fraction)

Consider the compound O=C(CN1C(=O)S/C(=C\c2ccc(Cl)cc2)C1=O)N1CCN(CC(O)(Cn2cncn2)c2cc(F)ccc2F)CC1 (stereo unspecified) and give its measured solubility (mole fraction).
0.00115

----------
measurementParameters: in n-hexane, 303.15 K
quantity: solubility (mole fraction)

Looking for the measured solubility (mole fraction) of O=C(CN1C(=O)S/C(=C\c2ccc(Cl)cc2)C1=O)N1CCN(CC(O)(Cn2cncn2)c2cc(F)ccc2F)CC1 (stereo unspecified) , can you help?
4.1e-06

----------
measurementParameters: in ethanol, 303.15 K
quantity: solubility (mole fraction)

Look at this molecule and give its reported solubility (mole fraction). O=C(CN1C(=O)S/C(=C\c2ccc(Cl)cc2)C1=O)N1CCN(CC(O)(Cn2cncn2)c2cc(F)ccc2F)CC1 (stereo unspecified)
0.000254

----------
measurementParameters: in n-octanol, 298.15 K
quantity: solubility (mole fraction)
# output: bare number, no unit

Would you kindly share the measured solubility (mole fraction) for O=C(CN1C(=O)S/C(=C\c2ccc(Cl)cc2)C1=O)N1CCN(CC(O)(Cn2cncn2)c2cc(F)ccc2F)CC1 (stereo unspecified) ?
0.000578
